System: ACHN
Experiment: NCI tumour cell line growth inhibition, 48 h
Counter-ions that a name gives are not always drawn. Activity calls are given as the source filed them. Cut-off read from the data, not from the text of the source: active = GI50 up to about 1.1 µM and inactive = higher.
VALUE_TYPE: GI50

A selection of reference data follows.
COc1cccc2cc(C(=O)O)c(=O)oc12; > 100 µM (inactive)
COc1cc2c(c(O)c1OC)C(=O)[C@@H]1CCC(=O)N1C2; > 100 µM (inactive)
COc1cc2nc(-c3cccs3)nc(Nc3cccc([N+](=O)[O-])c3)c2cc1OC; 15.7 µM (inactive)

Problem: Please give measured GI50 of the following entry: CN(CCCN(C)Cc1ccc(Cl)c(Cl)c1)CCN1CCCC1
Solution: 27.8 µM (inactive)

Problem: Please give measured GI50 of the following entry: CNC(C)Cc1ccccc1OC (stereo unspecified) [METHOXYPHENAMINE HYDROCHLORIDE]
Solution: > 100 µM (inactive)

Problem: Please give measured GI50 of the following entry: CCNc1ncnc2c1nnn2CC
Solution: > 100 µM (inactive)

Problem: Please give measured GI50 of the following entry: N#C/C(=C\c1cc(O)c(O)c(O)c1)C(N)=O
Solution: > 93.8 µM (inactive)

Problem: Please give measured GI50 of the following entry: CCOC(=O)C1([Se]c2ccccc2)CCCC1=O (stereo unspecified)
Solution: 20.3 µM (inactive)

Problem: Please give measured GI50 of the following entry: C=CC(c1ccccc1)C1(O)c2cccc(O)c2C(=O)c2c(O)cccc21 (stereo unspecified)
Solution: 17.8 µM (inactive)

Problem: Please give measured GI50 of the following entry: [O-][n+]1nc(N2CCOCC2)nc2ccccc21
Solution: > 100 µM (inactive)

Problem: Please give measured GI50 of the following entry: CSc1nc(C)cc(Nc2ccc(O)c(CN3CCOCC3)c2)n1
Solution: > 100 µM (inactive)

====

In this section we review reported GI50 values for a set of compounds.
Tested on: OVCAR-8
Experiment: NCI tumour cell line growth inhibition, 48 h
Where a name gives a salt, the structure may show the parent alone. The source made the active and inactive calls. Rule as the data show it: active = GI50 up to about 1.1 µM and inactive = higher.

CCSCC(N)C(=O)O (stereo not drawn); > 100 µM (inactive)
CC1(C)CO[P@@](=S)(c2ccccn2)O[C@@H]1c1ccccc1; > 100 µM (inactive)
O=C(CC(=O)N(C(=O)c1ccccc1)c1ccc(Cl)cc1)N/N=C\c1ccccc1O; 35.2 µM (inactive)
CC(=O)N(O)CCCCCNC(=O)CCC(=O)N(O)CCCCCNC(=O)CCC(=O)N(O)CCCCCN [DEFEROXAMINE HYDROCHLORIDE]; 38.4 µM (inactive)
CC(=O)C1=CC=C/C1=N\Nc1ccccc1; 9.73 µM (inactive)

Problem: Please give measured GI50 of the following entry: Cc1cc2c(cc1Cl)SC(NNc1ccc([N+](=O)[O-])cc1)=NS2(=O)=O
Solution: > 10 µM (inactive)

Problem: Please give measured GI50 of the following entry: Oc1ccccc1C(c1cc2c(cc1O)OCO2)N1CCOCC1 (stereo not drawn)
Solution: 9.29 µM (inactive)

Problem: Please give measured GI50 of the following entry: O=C1C(=O)N(c2cc(Cl)ccc2Cl)C(=O)C(=O)C1c1nc2ccccc2s1
Solution: > 100 µM (inactive)

Problem: Please give measured GI50 of the following entry: CSC1=Nc2ccccc2N=C(c2ccc(Cl)cc2)C1
Solution: 52.7 µM (inactive)

Problem: Please give measured GI50 of the following entry: CC1(c2cccc(C3CC4(CCC3=O)OCCCCO4)c2)OCCO1 (stereo not drawn)
Solution: > 100 µM (inactive)

Problem: Please give measured GI50 of the following entry: CCCOc1nc(N)c2cnn(C3CCCCO3)c2n1 (stereo not drawn)
Solution: > 100 µM (inactive)
